Consider the following compounds and their measured bioavailability readings.
assay: Oral bioavailability in Alderley Park Han Wistar rat at 5 mg/kg using HPMC/tween suspension; type: ADME, organism-based; conditions: in vivo
# output: bare number, implied unit %

Ask | Retrieve bioavailability measured for Cc1cc(F)ccc1-c1c(Oc2ccc(/C=C/C(=O)O)cc2)c2ccc(O)cc2oc1=O and print it.
Reply | 5

Ask | Retrieve bioavailability measured for O=C(O)/C=C/c1ccc(Cc2c(-c3ccccc3)c(=O)oc3cc(O)ccc23)cc1 and print it.
Reply | 67

----------
Consider the following compounds and their measured solubility thermodynamic at 24 h readings.
test: Thermodynamic solubility of the compound in 0.1 M aqueous phosphate buffer at 25 degC at pH 7.4 after 24 hrs; assay type: physicochemical; conditions: read-out: Therm_solubility
# output: bare number, implied unit µM

Known solubility thermodynamic at 24 h results, listed for orientation:
1) CC/C(=C(\c1ccc(O)cc1)c1ccc(/C=C/C(=O)O)cc1)c1ccccc1
200
2) Cc1cc(OC(F)(F)F)ccc1-c1c(Oc2ccc(/C=C/C(=O)O)cc2)c2ccc(O)cc2oc1=O
97

Let us move to another entry and its solubility thermodynamic at 24 h.
Ask | Retrieve solubility thermodynamic at 24 h measured for O=C(O)/C=C/c1ccc(Cc2c(-c3ccccc3)c(=O)oc3cc(O)ccc23)cc1 and print it.
Reply | 470

----------
Assay system Voltage-gated inwardly rectifying potassium channel KCNH2 (Homo sapiens, UniProt Q12809); read-out recorded as IC50.

Known IC50 results, listed for orientation:
1. CC/C(=C(\c1ccc(O)cc1)c1ccc(/C=C/C(=O)O)cc1)c1ccccc1
> 100 µM
2. Cc1cc(OC(F)(F)F)ccc1-c1c(Oc2ccc(/C=C/C(=O)O)cc2)c2ccc(O)cc2oc1=O
> 100 µM

Ask | Determine reported IC50 for Cc1cc(F)ccc1-c1c(Oc2ccc(/C=C/C(=O)O)cc2)c2ccccc2oc1=O ; test system: Voltage-gated inwardly rectifying potassium channel KCNH2 (Homo sapiens, UniProt Q12809).
Reply | > 100 µM

----------
experiment: Intrinsic clearance in mouse hepatocytes measured per 10^6 cells; format: ADME, cell-based, Hepatocyte; conditions: read-out: CLH
Consider the following molecules and their measured hepatocyte CLint readings.
# output: bare number, implied unit µL/min/1e6 cells

Known hepatocyte CLint results, listed for orientation:
1. Cc1cc(F)ccc1-c1c(Oc2ccc(/C=C/C(=O)O)cc2)c2ccc(O)cc2oc1=O
68
2. O=C(O)/C=C/c1ccc(Cc2c(-c3ccccc3)c(=O)oc3cc(O)ccc23)cc1
87

Let us move to another entry and its hepatocyte CLint.
Ask | Retrieve hepatocyte CLint measured for Cc1cc(OC(F)(F)F)ccc1-c1c(Oc2ccc(/C=C/C(=O)O)cc2)c2ccc(O)cc2oc1=O and print it.
Reply | 9

----------
system: MCF7; assay: Inhibition of cell proliferation in human MCF7 cells after 7 days by laser scanning imaging cytometer analysis; type: functional, cell-based; conditions: MCF7, 168 h
Consider the following compounds and their measured EC50 readings.
# output: bare number, implied unit µM

Known EC50 results, listed for orientation:
1) Cc1cc(F)ccc1-c1c(Oc2ccc(/C=C/C(=O)O)cc2)c2ccc(O)cc2oc1=O
0.0045
2) CC/C(=C(\c1ccccc1)c1ccc(/C=C/C(=O)O)cc1)c1ccccc1
0.3
3) O=C(O)/C=C/c1ccc(Cc2c(-c3ccccc3)c(=O)oc3cc(O)ccc23)cc1
0.26

Let us move to another entry and its EC50.
Ask | Determine reported EC50 for Cc1cc(OC(F)(F)F)ccc1-c1c(Oc2ccc(/C=C/C(=O)O)cc2)c2ccccc2oc1=O ; test system: MCF7.
Reply | 0.02

Sourced from ChEMBL document CHEMBL3425438
